Target or system Cytochrome P450 2D6 (Homo sapiens, UniProt P10635); recorded quantity IC50.
observed-property: IC50 (µM)

Solved entries:
compound=COc1ccc(-c2oc3cc(O)cc(O)c3c(=O)c2OC)cc1 target_or_system="Cytochrome P450 2D6 (Homo sapiens, UniProt P10635)" recorded_result=45.5
compound=CC(=O)O[C@@H]1[C@@H](OC(C)=O)[C@@H](O)[C@H](Oc2c(-c3ccc(O)cc3)oc3cc(O)cc(O)c3c2=O)O[C@H]1C target_or_system="Cytochrome P450 2D6 (Homo sapiens, UniProt P10635)" recorded_result=50.5

(A) CC(=O)O[C@@H]1[C@@H](OC(C)=O)[C@H](C)O[C@@H](Oc2c(-c3ccc(O)cc3)oc3cc(O)cc(O)c3c2=O)[C@@H]1OC(C)=O
(B) COc1c(-c2ccc(O)cc2)oc2cc(O)cc(O)c2c1=O [ISOKAEMPFERIDE]
Between the two listed entries A and B , which has its IC50 at the higher number? Please indicate the selected item by its label. A

Hey, just so you know, these numbers are from ChEMBL document CHEMBL1151241.
